molecular target: human OX2 receptors (Homo sapiens, UniProt O43614); construct: expressed in transfected cells; host or cells: HEK-293 cells; test: antagonistic activity against human OX2 receptor, calcium fluorimetry (Fluo-4NW) in transfected HEK-293 cells; format: cell-based; settings: HEK-293 cells transfected with human recombinant OX2, activated with orexin-B 10 nM; pKb = co-logarithm of apparent dissociation constant (modified Cheng Prusoff)
Sequence (O43614 whole entry): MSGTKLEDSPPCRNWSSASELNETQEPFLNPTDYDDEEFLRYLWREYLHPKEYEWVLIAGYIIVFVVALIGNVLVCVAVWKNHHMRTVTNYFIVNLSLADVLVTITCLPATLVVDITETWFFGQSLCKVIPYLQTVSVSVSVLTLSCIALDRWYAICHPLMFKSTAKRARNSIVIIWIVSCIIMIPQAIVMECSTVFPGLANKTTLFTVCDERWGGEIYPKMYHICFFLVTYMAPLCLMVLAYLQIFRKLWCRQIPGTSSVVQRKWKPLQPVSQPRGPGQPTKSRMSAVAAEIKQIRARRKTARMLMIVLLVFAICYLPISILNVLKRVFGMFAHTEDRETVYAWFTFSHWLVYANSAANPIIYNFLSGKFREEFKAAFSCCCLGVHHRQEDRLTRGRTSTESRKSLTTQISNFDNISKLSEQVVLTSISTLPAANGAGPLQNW
Task for the reader: assign each of the following compounds its reported Kb.
Enter your answer as a number in nM; do not include the unit.

Quick one: Kb for Cc1ccc(-c2ncccn2)c(C(=O)N2[C@H](CNc3ccc(C(F)(F)F)cn3)CC[C@@H]3C[C@@H]32)c1 [Compound 4a] ?
39.8

What do you get for Cc1ccc(-c2ncccn2)c(C(=O)N2[C@H](CNc3ccc(C(F)(F)F)cn3)CC[C@H]3C[C@H]32)c1 [Compound 1d] ?
3.98

One more compound: Cc1ccc(-c2ncccn2)c(C(=O)N2[C@H](CNc3nccc(C(F)(F)F)n3)CC[C@H]3C[C@H]32)c1 [Compound 1k]
5.01

What would you report for O=C(c1cc(Cl)ccc1-c1ncccn1)N1[C@H](CNc2ccc(C(F)(F)F)cn2)CC[C@@H]2C[C@@H]21 [Compound 4b] ?
200

Next entry: Cc1ccc(-c2ncccn2)c(C(=O)N2[C@H](CNc3cc(C(F)(F)F)ccn3)CC[C@@H]3C[C@@H]32)c1 [Compound 4f]
39.8

Continue with Cc1nc(C(=O)N2[C@H](CNc3ccc(C(F)(F)F)cn3)CC[C@H]3C[C@H]32)c(-c2ccccc2)s1 [Compound 2a]
2.51

Now try O=C(c1cc(Cl)ccc1-c1ncccn1)N1[C@H](CNc2cc(C(F)(F)F)ccn2)CC[C@@H]2C[C@@H]21 [Compound 4d] .
50.1

O=C(c1cc(Cl)ccc1-c1ncccn1)N1[C@H](CNc2nccc(C(F)(F)F)n2)CC[C@H]2C[C@H]21 [Compound 1g] ?
5.01

Next up: N#Cc1ccc(-c2ncccn2)c(C(=O)N2[C@H](CNc3nccc(C(F)(F)F)n3)CC[C@H]3C[C@H]32)c1 [Compound 1j]
20

And the next one, N#Cc1ccc(-c2ncccn2)c(C(=O)N2[C@H](CNc3ccc(C(F)(F)F)cn3)CC[C@@H]3C[C@@H]32)c1 [Compound 4c] ?
79.4

What would you report for O=C(c1cc(Cl)ccc1-c1ncccn1)N1[C@H](CNc2ccc(C(F)(F)F)cn2)CC[C@H]2C[C@H]21 [Compound 1e] ?
12.6

Then Cc1nc(C(=O)N2[C@H](CNc3nccc(C(F)(F)F)n3)CC[C@H]3C[C@H]32)c(-c2ccccc2)s1 [Compound 2c] ?
6.31

Now this one: N#Cc1ccc(-c2ncccn2)c(C(=O)N2[C@H](COc3ccc(Cl)cn3)CC[C@H]3C[C@H]32)c1 [Compound 3a]
63.1

Now this one: O=C(c1cc(Cl)ccc1-c1ncccn1)N1[C@H](COc2ccc(Cl)cn2)CC[C@H]2C[C@H]21 [Compound 3e]
15.8

Field entry: O=C(c1cc(Cl)ccc1-c1ncccn1)N1[C@H](CNc2ccc(Cl)cn2)CC[C@H]2C[C@H]21 [Compound 1f]
15.8

Do the same for Cc1ccc(-c2ncccn2)c(C(=O)N2[C@H](CNc3ccc(Cl)cn3)CC[C@H]3C[C@H]32)c1 [Compound 1c] please
12.6

Another compound to check: N#Cc1ccc(-c2ncccn2)c(C(=O)N2[C@H](CNc3ccc(Cl)cn3)CC[C@H]3C[C@H]32)c1 [Compound 1i]
20

Entry Cc1ccc(-c2ncccn2)c(C(=O)N2[C@H](COc3ccc(C(F)(F)F)cn3)CC[C@H]3C[C@H]32)c1 [Compound 3g] please
12.6
